# Protocol Details: chemical genetic growth profiling, strain panel (AID 1159580);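 also: tested at 20 µM; growth read once vehicle control cultures reached saturation at 30 °C; 1 = growth at the plate median or of vehicle wells; lower values mean less growth of the strain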
# Experimental Conditions: S. cerevisiae deletion strains, growth OD, locus YGR135W, strain pre9, active compounds read low
Among all 5,500 compounds or so, about 2,000 (36%) were called active. Another 18% or so got no clear call; they are omitted. The list shows a part of the results.
The following compounds are listed with their measured normalized growth values.

| Compound | normalized growth |
| --- | --- |
| C[C@@H]1CC[C@@]23CCC4(C)[C@@](C=CC5[C@@]6(C)CCC(=O)C(C)(C)C6CC[C@]54C)(OC2=O)C3[C@H]1C (some centres not stated) | 1 |
| CCCCCC(O)C1C(=O)OC(C)C(O)/C=C/C=C/C=C/C=C/C=C(\C)C(O)CC(O)CC(O)CC(O)CC(O)CC(O)CC1O (configuration not stated) | 1.02 |
| O=C(CCCN1CCC(O)(c2ccc(Cl)cc2)CC1)c1ccc(F)cc1 | 0.73 |
| COP(N)(=O)SC (configuration not stated) | 0.999 |
| CCC(=O)O[C@]1(C(=O)CCl)[C@@H](C)CC2C3CCC4=CC(=O)C=C[C@]4(C)[C@@]3(F)[C@@H](O)C[C@@]21C (some centres not stated) | 0.974 |
| O=C(CCCN1CCC2(CC1)C(=O)NCN2c1ccccc1)c1ccc(F)cc1 | 0.997 |
| CCn1nc(C(=O)O)c(=O)c2cc3c(cc21)OCO3 | 1.04 |
| CCCCC(=O)O[C@]1(C(=O)CO)[C@@H](C)CC2C3CCC4=CC(=O)C=C[C@]4(C)[C@@]3(F)C(O)C[C@@]21C (some centres not stated) | 0.977 |
| CC(=O)O[C@@H]1CC2C(C)(C)CCC[C@]2(C)C2CC[C@]3(C)C(=CC(=O)O[C@H]3c3ccoc3)[C@@]21C (some centres not stated) | 0.978 |
| CC1=C2C(O)C(=O)OC3CC4C(C)(C)C(=O)C=C[C@]4(C)C(CC1)[C@]23C (some centres not stated) | 1.07 |
| CCC(=O)OCC(=O)[C@@]1(OC(=O)CC)[C@@H](C)CC2C3CCC4=CC(=O)C=C[C@]4(C)C3(F)[C@@H](O)C[C@@]21C (some centres not stated) | 0.863 |
| CC1CCCC(C)N1NC(=O)c1ccc(Cl)c(S(N)(=O)=O)c1 (configuration not stated) | 0.993 |
| CC(=O)O[C@@H]1CC2C(C)(CC[C@H](O)C2(C)C)C2CC[C@]3(C)C(=CC(=O)O[C@H]3c3ccoc3)C21C (some centres not stated) | 0.959 |
| NCC(O)CC(=O)O (configuration not stated) | 1 |
| CC1(C)S[C@@H]2[C@H](NC(=O)[C@@H](N)c3ccc(O)cc3)C(=O)N2[C@H]1C(=O)O | 0.986 |
| Cc1ccccc1N1C(=O)c2cc(S(N)(=O)=O)c(Cl)cc2NC1C (configuration not stated) | 0.986 |
| N#Cc1c(Cl)cccc1Cl | 1.01 |

Where these numbers come from: PubChem BioAssay AID1159580
